# System: PRKR;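 note: KINOMEscan kinase panel screen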
# Construct: gene EIF2AK2
# Details: concentration: 1 μM, replicates: in singlicate; n = 1
Kind request: treat 6% as inclusive, so %Inh at 6% or higher is True, anything lower is False.

query: # bool: %Inh of COc1ccc(-c2coc3ccc(-c4nnc(SCc5ccc(OC)c(C(F)(F)F)c5)o4)cc23)cc1 >= 6%
result: False

query: # bool: %Inh of Cc1ccc(F)c(C(=O)Nc2cccc(-c3nn4ccccc4c3-c3ccnc(Nc4cccc(F)c4)n3)c2)c1F >= 6%
result: False

query: # bool: %Inh of Cc1cccc(NC(=O)Nc2ccc(Oc3ncnc4ccn(C)c34)cc2)c1 >= 6%
result: False
